Below, each entry is listed with its recorded polymerase ribozyme fitness (log ratio).
B1: TPR 5TU (parent)
chain: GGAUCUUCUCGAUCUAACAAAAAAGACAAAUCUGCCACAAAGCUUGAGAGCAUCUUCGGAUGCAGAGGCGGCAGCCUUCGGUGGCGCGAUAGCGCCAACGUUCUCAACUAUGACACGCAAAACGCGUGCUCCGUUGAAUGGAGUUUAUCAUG

variants of: B1; test: polymerase ribozyme fitness, log enrichment relative to wild type (log ratio); higher = more active; in vitro selection for triplet polymerase activity
Fewer inactive variants are shown than the library holds.
ATTRIBUTE_MEASURED: polymerase ribozyme fitness (log ratio)

- C35U G42C C76A C93A G117C: ≤ -4.2
- A20U A23C A47G U77G G84C A97U C118U: ≤ -4.2
- C27A C38U G81A G86U A110U: ≤ -4.2
- C35U C96U U101C C118U: -0.95
- A40C U56G A64U C87U G143U: ≤ -4.2
